Each recorded value in this set is attributed to PubChem BioAssay AID2060502.

This listing pairs molecules with measured viability, T/C.
Test system: 885724-159-R-J1-PDC complex spheroid viability;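 note: spheroids exposed to agents for seven days before readout; percent of vehicle control viability where 100% = DMSO wells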
ASSAY_COMMENT: Anticancer human tumor 885724-159-R-J1-PDC patient-derived pancreatic adenocarcinoma cell line growth inhibition [GQUAD]
ASSAY_SETUP: second compound 0.1 µM; first compound 0.316 µM; stronger effect = lower value
Quick note: give the figure in %, leave out the unit.

// known answers, use as guide
>  <MOLECULE>
CC1COCCN1c1cc(C2(O)CC3CCC(C2)O3)c2cnn(-c3ccn[nH]3)c2n1 (stereo not given) + Cc1[nH]c2ccc(F)cc2c1-c1nc2c3cccnc3c3ncccc3c2[nH]1

>  <VALUE_UNITS>
%

>  <viability, T/C>
74.1

$$$$
>  <MOLECULE>
Cn1ncnc1[C@H]1c2n[nH]c(=O)c3cc(F)cc(c23)N[C@@H]1c1ccc(F)cc1 + CN(C)c1ccc(Nc2c3ccc(NC(=O)CCN4CCCC4)cc3nc3cc(NC(=O)CCN4CCCC4)ccc23)cc1

>  <VALUE_UNITS>
%

>  <viability, T/C>
88.3

$$$$
>  <MOLECULE>
COc1cc(C2c3cc4c(cc3C(OC3OC5COC(C)OC5C(O)C3O)C3COC(=O)C23)OCO4)cc(OC)c1O (stereo not given) + CN(C)c1ccc(Nc2c3ccc(NC(=O)CCN4CCCC4)cc3nc3cc(NC(=O)CCN4CCCC4)ccc23)cc1

>  <VALUE_UNITS>
%

>  <viability, T/C>
83.2

$$$$
>  <MOLECULE>
COc1ccc([C@@H](O)c2cc(-c3ncnc4cc(N5CCOCC5)ccc34)c(F)cc2Cl)nn1 + CN(C)c1ccc(Nc2c3ccc(NC(=O)CCN4CCCC4)cc3nc3cc(NC(=O)CCN4CCCC4)ccc23)cc1

>  <VALUE_UNITS>
%

>  <viability, T/C>
95.7

$$$$

Prompt: Tell me measured viability, T/C for O=C(NO)c1cnc(N2CCN(S(=O)(=O)c3ccc4ccccc4c3)CC2)nc1 + Cc1cnc(CNC(=O)c2c(=O)c3ccc(N4CCCN(C)CC4)nc3n3c2sc2ccccc23)cn1 please.
Completion: 56.6
